Just for reference, patent US20160068605A1 is where these values come from.

Tested System: T1, Recombinant human CD123 SP2 ECD protein (human, UniProt P26951 101-303)
T1 construct: also called rhCD123 SP2; CD123 ECD SP2
T1 sequence: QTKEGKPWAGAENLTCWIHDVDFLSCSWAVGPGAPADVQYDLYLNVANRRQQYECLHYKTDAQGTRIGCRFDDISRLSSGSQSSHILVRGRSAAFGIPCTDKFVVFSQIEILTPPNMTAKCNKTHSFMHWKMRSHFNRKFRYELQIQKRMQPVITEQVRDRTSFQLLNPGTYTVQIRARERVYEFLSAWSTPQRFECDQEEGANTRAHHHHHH
Method Description: SPR ProteOn, captured mAb
Measurement Type: kon (M⁻¹ s⁻¹)
Write the number in M⁻¹ s⁻¹ without appending the unit.

Problem: Sample I3RB19 (antibody, IgG1, V domains shown, IgG1; also called 13RB19) VH: EVQLLESGGGLVQPGGSLRLSCAASGFTFSNYAMSWVRQAPGKGLEWVSGIRGNGSSTYYADSVKGRFTISRDNSKNTLYLQMNSLRAEDTAVYYCAKGGPIGARFPDYLDYWGQGTLVTVSS VL: DIQMTQSPSSLSASVGDRVTITCRASQSIGDFLNWYQQKPGKAPKLLIYYASSLQSGVPSRFSGSGSGTDFTLTISSLQPEDFATYYCQQSYSTPLTFGQGTKVEIK — what was its kon?
Result: 334000
